method.notes: chemical genetic growth profiling, strain panel (AID 1159580);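 further: tested at 20 µM; growth read once vehicle control cultures reached saturation at 30 °C; 1 = growth at the plate median or of vehicle wells; lower values mean less growth of the strain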
conditions: S. cerevisiae deletion strains, growth OD, locus YPL031C, strain PHO85
The campaign covered roughly 5,500 compounds. About 2,000 (36%) were called active. Not shown: some 18% with an inconclusive outcome. No stated cut-off is given here; in the data, active means normalized growth mostly below about 0.91 (no sharp cut-off); inconclusive means no clear call, values can overlap the other calls; inactive means mostly above about 0.92. The list shows a part of the results.
Possible outcomes: 1.0 (active), 0.0 (inactive)

>  <chemical.smiles>
CCc1cc2c(cc1-c1csc(C/C(N)=N\O)n1)C(C)(C)CCC2(C)C

>  <class.assignment>
1.0

$$$$
>  <chemical.smiles>
COc1ccccc1NC(=O)Nc1nn(C)c2cccc(OC)c12

>  <class.assignment>
0.0

$$$$
>  <chemical.smiles>
O=C(CCSc1cccs1)Nc1cccc(C(F)(F)F)c1

>  <class.assignment>
0.0

$$$$
>  <chemical.smiles>
CC1(C)C/C(=N/Nc2ccc(C(F)(F)F)cc2)c2cc(C(C)(C)C)c(O)c(O)c2O1

>  <class.assignment>
1.0

$$$$
>  <chemical.smiles>
CCOC(=O)CCc1cc(N=Cc2cc(Br)ccc2O)c(O)c(N=Cc2cc(Br)ccc2O)c1

>  <class.assignment>
0.0

$$$$
>  <chemical.smiles>
O=C(CO/N=C\c1ccc(Cl)cc1Cl)NNC(=S)Nc1cc(Cl)ccc1Cl

>  <class.assignment>
0.0

$$$$
>  <chemical.smiles>
CN(C)/C=C/C(=O)c1ccc(C#Cc2ccccc2)cc1

>  <class.assignment>
0.0

$$$$
>  <chemical.smiles>
CSc1cccc(N2C(=O)CC(c3c(Cl)cccc3Cl)CC2=O)c1

>  <class.assignment>
0.0

$$$$

====

method.notes: chemical genetic growth profiling, strain panel (AID 1159580)
conditions: S. cerevisiae deletion strains, growth OD, locus YCL016C, strain dcc1, active compounds read low
Screen size: about 5,500 compounds; about 2,000 (36%) were called active. Not shown: some 18% with an inconclusive outcome. Some of the results follow.
Threshold-based label: normalized growth under 1 gives 1.0, normalized growth not under 1 gives 0.0.

>  <molecule>
Cc1cccc(CN2CCN(C(c3ccccc3)c3ccc(Cl)cc3)CC2)c1 (stereo not drawn)

>  <class.assignment>
1.0

$$$$
>  <molecule>
CC1=C(/C=C/C(C)=C/C=C/C(C)=C/C(=O)O)C(C)(C)CCC1

>  <class.assignment>
1.0

$$$$
>  <molecule>
CC1=C(/C=C/C(C)=C/C=C/C(C)=C/CO)C(C)(C)CCC1

>  <class.assignment>
0.0

$$$$

====

method.notes: chemical genetic growth profiling, strain panel (AID 1159580)
conditions: S. cerevisiae deletion strains, growth OD, locus YLR268W, strain sec22
The campaign covered roughly 5,500 compounds. About 2,000 (36%) were called active. Another 18% or so got no clear call; they are omitted. Cut-off read from the data, not from the text of the source: active = normalized growth mostly below about 0.91 (no sharp cut-off); inconclusive = no clear call, values can overlap the other calls; inactive = mostly above about 0.92. Some of the results follow.
Labels: true (1) (active), false (0) (inactive)

>  <chemical.smiles>
OC/C=C/c1ccc(O)c(O)c1

>  <class.assignment>
false (0)

$$$$
>  <chemical.smiles>
C[C@@]12C(=O)OC(=O)[C@]1(C)C1CCC2O1

>  <class.assignment>
true (1)

$$$$
>  <chemical.smiles>
O=C(/C=C/c1ccc(O)c(O)c1)O[C@@H]1C[C@](O)(C(=O)O)C[C@@H](O)[C@H]1O

>  <class.assignment>
false (0)

$$$$
>  <chemical.smiles>
COP(=S)(OC)Oc1ccc(SC)c(C)c1

>  <class.assignment>
false (0)

$$$$
>  <chemical.smiles>
COc1cc(/C=C/C(=O)O)cc(OC)c1OC

>  <class.assignment>
false (0)

$$$$
>  <chemical.smiles>
Oc1ccc(/C=C/c2cc(O)cc(O)c2)cc1

>  <class.assignment>
false (0)

$$$$

====

method.notes: chemical genetic growth profiling, strain panel (AID 1159580)
conditions: S. cerevisiae deletion strains, growth OD, locus YBR136W, strain MEC1, active compounds read low
In all, about 5,500 compounds went through this assay and about 2,000 (36%) were called active. Inconclusive results (about 18%) are left out. Some of the results follow.
Quick list: normalized growth per entry.
attribute.measured: normalized growth

>  <compound>
CCCC1c2ccsc2CCN1C(=S)Nc1ccc(Cl)cc1Cl (stereo unspecified)

>  <numeric.result>
0.972

$$$$
>  <compound>
CSc1cccc(N2C(=O)CC(c3c(Cl)cccc3Cl)CC2=O)c1

>  <numeric.result>
0.989

$$$$
>  <compound>
Cc1onc(-c2ccccc2Cl)c1-c1nc2ccccc2c(=O)o1

>  <numeric.result>
0.973

$$$$
>  <compound>
Nc1cc(-c2ccc(OC(F)(F)F)cc2)nn1-c1ccc(Cl)c(Cl)c1

>  <numeric.result>
1.02

$$$$
>  <compound>
CCCCCCCC1CCC/C1=N/OC(=O)c1cccs1 (stereo unspecified)

>  <numeric.result>
1

$$$$
>  <compound>
CCOC(=O)CCc1cc(N=Cc2cc(Br)ccc2O)c(O)c(N=Cc2cc(Br)ccc2O)c1

>  <numeric.result>
0.966

$$$$
>  <compound>
COc1cc(Cl)c(NS(=O)(=O)c2cc(Br)c(Br)s2)c(OC)c1

>  <numeric.result>
0.977

$$$$
>  <compound>
COc1ccccc1C(C[N+](=O)[O-])c1c(N)n(C)c(=O)n(C)c1=O (stereo unspecified)

>  <numeric.result>
0.945

$$$$
>  <compound>
CCOC(=O)c1c(N=Cc2cc(Br)c(Br)cc2O)sc2c1CCCC2

>  <numeric.result>
0.97

$$$$
>  <compound>
O=C(Nc1cccc(C(F)(F)F)c1)Oc1ccc(F)cc1Cl

>  <numeric.result>
0.98

$$$$
>  <compound>
CC12CC[C@@H](O)CC1=CC[C@@H]1C2CCC2(C)C(=O)CC[C@@H]12 (stereo partly specified)

>  <numeric.result>
1.01

$$$$

====

Collected normalized growth values appear next to each entry.
method.notes: chemical genetic growth profiling, strain panel (AID 1159580);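 further: tested at 20 µM; growth read once vehicle control cultures reached saturation at 30 °C; 1 = growth at the plate median or of vehicle wells; lower values mean less growth of the strain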
conditions: S. cerevisiae deletion strains, growth OD, locus YCL069W, strain vba3, active compounds read low
Out of some 5,500 compounds screened, about 2,000 (36%) were called active. Inconclusive results (about 18%) are left out. The list shows a part of the results.

>  <molecule>
CC1(C)O[C@@H]2CC3C4CCC5=CC(=O)C=C[C@]5(C)C4[C@@H](O)C[C@]3(C)[C@]2(C(=O)CO)O1 (some centres undefined)

>  <normalized growth>
0.995

$$$$
>  <molecule>
O=C(O)P(=O)(O)O

>  <normalized growth>
1

$$$$
>  <molecule>
O=C(O)CCC(=O)c1ccc(-c2ccccc2)cc1

>  <normalized growth>
0.983

$$$$
>  <molecule>
COc1ccc(CN(CCN(C)C)c2ncccn2)cc1

>  <normalized growth>
1.01

$$$$
>  <molecule>
CCn1cc(C(=O)O)c(=O)c2cnc(N3CCNCC3)nc21

>  <normalized growth>
1.02

$$$$
>  <molecule>
O=C(O)c1cc(=O)c(O)c2c(O)c(O)ccc2c1

>  <normalized growth>
0.998

$$$$
>  <molecule>
O=C(O)CNCP(=O)(O)O

>  <normalized growth>
1.02

$$$$
>  <molecule>
CO[C@@H]1[C@@H](O[C@@H]2O[C@H](C)[C@@H](O[C@H]3C[C@@](C)(O)[C@H](O)[C@H](C)O3)[C@H](N(C)C)[C@H]2O)[C@@H](CC=O)C[C@@H](C)[C@@H](O[C@H]2CC[C@H](N(C)C)[C@@H](C)O2)/C=C/C=C/C[C@H](C)OC(=O)C[C@H]1O

>  <normalized growth>
1.01

$$$$
>  <molecule>
O=C1O[C@@H](CO)[C@H](O)[C@@H](O)[C@@H]1O

>  <normalized growth>
1.03

$$$$

====

method.notes: chemical genetic growth profiling, strain panel (AID 1159580);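 further: tested at 20 µM; growth read once vehicle control cultures reached saturation at 30 °C; 1 = growth at the plate median or of vehicle wells; lower values mean less growth of the strain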
conditions: S. cerevisiae deletion strains, growth OD, locus YDR159W, strain sac3
Among all 5,500 compounds or so, about 2,000 (36%) were called active. Another 18% or so got no clear call; they are omitted. Rule as the data show it: active = normalized growth mostly below about 0.91 (no sharp cut-off); inconclusive = no clear call, values can overlap the other calls; inactive = mostly above about 0.92. This is one part of the list.
Labels: active, inactive

>  <molecule>
c1ccc(-c2ccc(C(c3ccccc3)n3ccnc3)cc2)cc1 (stereo not drawn)

>  <class.assignment>
active

$$$$
>  <molecule>
CC(=O)OCC(=O)[C@@]12OC(C)(C)O[C@@H]1CC1C3C[C@H](F)C4=CC(=O)C=C[C@]4(C)[C@@]3(F)[C@@H](O)C[C@@]12C (stereo partly drawn)

>  <class.assignment>
inactive

$$$$
>  <molecule>
O=C(NC(Cc1cc(=O)[nH]c2ccccc12)C(=O)O)c1ccc(Cl)cc1 (stereo not drawn)

>  <class.assignment>
inactive

$$$$

====

method.notes: chemical genetic growth profiling, strain panel (AID 1159580);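 further: tested at 20 µM; growth read once vehicle control cultures reached saturation at 30 °C; 1 = growth at the plate median or of vehicle wells; lower values mean less growth of the strain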
conditions: S. cerevisiae deletion strains, growth OD, locus YER167W, strain BCK2
The campaign covered roughly 5,500 compounds. About 2,000 (36%) were called active. About 18% were inconclusive and are not listed. Rule as the data show it: active = normalized growth mostly below about 0.91 (no sharp cut-off); inconclusive = no clear call, values can overlap the other calls; inactive = mostly above about 0.92. This is one part of the list.
Outcomes: active, inactive

>  <molecule>
CCCSP(=O)(OCC)SCCC

>  <class.assignment>
inactive

$$$$
>  <molecule>
C=CCc1cc(OC)c2c(c1OC)OCO2

>  <class.assignment>
inactive

$$$$
>  <molecule>
NC(=O)c1cnccn1

>  <class.assignment>
inactive

$$$$
>  <molecule>
CC(=O)O[C@H]1CC[C@@]2(C)C(=CCC3C2CC[C@]2(C)C(=O)CCC32)C1 (stereo partly specified)

>  <class.assignment>
active

$$$$
>  <molecule>
Nc1nccs1

>  <class.assignment>
inactive

$$$$
>  <molecule>
Nc1ccc(S(=O)(=O)Nc2nccs2)cc1

>  <class.assignment>
inactive

$$$$
>  <molecule>
COc1ccc2c(c1O)-c1c(OC)c(OC)cc3c1[C@H](C2)N(C)CC3

>  <class.assignment>
inactive

$$$$
>  <molecule>
CC(=O)OCC(=O)[C@@]12OC(C)(C)O[C@@H]1CC1C3C[C@H](F)C4=CC(=O)C=C[C@]4(C)[C@@]3(F)[C@@H](O)C[C@@]12C (stereo partly specified)

>  <class.assignment>
inactive

$$$$
>  <molecule>
COc1c(C(=O)O)ccc2c1CCC(C)(C)O2

>  <class.assignment>
inactive

$$$$
>  <molecule>
CCOP(=S)(OCC)SCCSCC

>  <class.assignment>
inactive

$$$$
>  <molecule>
NC(=O)c1cc[n+](CC2=C(C(=O)O)N3C(=O)C(NC(=O)C(c4ccccc4)S(=O)(=O)[O-])C3SC2)cc1 (stereo unspecified)

>  <class.assignment>
inactive

$$$$
>  <molecule>
CO[C@@H]1C[C@@H](C[C@H]2CC[C@H](C)[C@H]([C@@H](C)C(=O)O)O2)O[C@]2(O[C@](C)([C@H]3CC[C@@](C)(C4O[C@@H](C5O[C@@](O)(CO)[C@H](C)C[C@@H]5C)C[C@@H]4C)O3)C[C@H]2C)[C@@H]1C (stereo partly specified)

>  <class.assignment>
inactive

$$$$
>  <molecule>
CN=C1CN(O)C(c2ccccc2)=c2cc(Cl)ccc2=N1

>  <class.assignment>
inactive

$$$$
>  <molecule>
CCOP(=S)(OCC)Oc1ccc2c(C)c(Cl)c(=O)oc2c1

>  <class.assignment>
inactive

$$$$
>  <molecule>
O=c1cccc2n1C[C@H]1CNCC2C1

>  <class.assignment>
inactive

$$$$
>  <molecule>
CN1CCc2cccc3c2C1Cc1ccc(O)c(O)c1-3 (stereo unspecified)

>  <class.assignment>
inactive

$$$$
>  <molecule>
CCC(CCC(C)C1CCC2C3CC=C4C[C@@H](OC(C)=O)CC[C@]4(C)C3CC[C@]12C)C(C)C (stereo partly specified)

>  <class.assignment>
inactive

$$$$
>  <molecule>
Cc1cccc(CN2CCN(C(c3ccccc3)c3ccc(Cl)cc3)CC2)c1 (stereo unspecified)

>  <class.assignment>
inactive

$$$$
>  <molecule>
COc1c(C2COc3cc4c(cc3C2=O)CC(O)C(C)(C)O4)ccc2c1CCC(C)(C)O2 (stereo unspecified)

>  <class.assignment>
inactive

$$$$
>  <molecule>
COc1cc2c3cc1Oc1cc(ccc1O)OC1c4c(cc(OC)c(O)c4Oc4ccc(cc4)CC3N(C)CC2)CCN1C (stereo unspecified)

>  <class.assignment>
inactive

$$$$
>  <molecule>
CC(=O)N[C@@H]1[C@@H](C(O)[C@H](O)CO)O[C@](O)(C(=O)O)C[C@@H]1O (stereo partly specified)

>  <class.assignment>
inactive

$$$$
